# credit: PubChem BioAssay AID1159580

method_summary: chemical genetic growth profiling, strain panel (AID 1159580);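 note: tested at 20 µM; growth read once vehicle control cultures reached saturation at 30 °C; 1 = growth at the plate median or of vehicle wells; lower values mean less growth of the strain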
particulars: S. cerevisiae deletion strains, growth OD, locus YOR061W, strain CKA2, stronger effect = lower value
Screen size: about 5,500 compounds; about 2,000 (36%) were called active. Another 18% or so got no clear call; they are omitted. The list shows a part of the results.
In this section, each of the compounds is paired with its reported normalized growth.
Lab note: jot down the number only; don't add units.

// below: answered compounds
CN(C)c1ccc(C(=C2C=CC(=[N+](C)C)C=C2)c2ccc(N(C)C)cc2)cc1 = 0.335
Cc1ccc(-c2csc(-c3cccnc3)n2)c(C)c1 = 0.912
Cc1c(Cc2ccc(F)cc2)c(=O)oc2cc(O)ccc12 = 0.957

Problem: Consider the compound shown here: O=C1C=CC(=C(c2ccc(O)cc2)c2ccc(O)cc2)C=C1 What is its recorded normalized growth?
Result: 1

----------
method_summary: chemical genetic growth profiling, strain panel (AID 1159580)
particulars: S. cerevisiae deletion strains, growth OD, locus YLR370C, strain arc18, stronger effect = lower value
About 2,000 (36%) of roughly 5,500 compounds were called active. Not shown: some 18% with an inconclusive outcome. This is one part of the list.
In this section, each of the molecules is paired with its reported normalized growth.
Lab note: jot down the number only; don't add units.

// below: answered molecules
CC1(C)OC(=O)NC1=O = 1.02
COC1=C(OC)C(=O)C(C/C=C(\C)CC/C=C(\C)CC/C=C(\C)CC/C=C(/C)CC/C=C(\C)CC/C=C(\C)CC/C=C(\C)CC/C=C(\C)CC/C=C(\C)CCC=C(C)C)=C(C)C1=O = 0.953
Cc1[nH]c(C)c(Cl)c(=O)c1Cl = 0.998
CCCCCCCCNC(C)C(O)c1ccc(SC(C)C)cc1 (configuration not stated) = 0.0598
C=C1C2CC[C@H]3[C@]4(C)C[C@H](OC5OC(CO)C(OS(=O)(=O)O)C(OS(=O)(=O)O)C5OC(=O)CC(C)C)C[C@@H](C(=O)O)[C@H]4CC[C@]3(C2)[C@H]1O (some centres not stated) = 1

Problem: Consider the molecule shown here: S=c1nc[nH]c2nc[nH]c12 What is its recorded normalized growth?
Result: 1.01

Problem: Consider the molecule shown here: NCCSSCCN What is its recorded normalized growth?
Result: 0.993

Problem: Consider the molecule shown here: COC1=CC(=O)C[C@@H](C)[C@]12Oc1c(Cl)c(OC)cc(OC)c1C2=O What is its recorded normalized growth?
Result: 0.943

----------
method_summary: chemical genetic growth profiling, strain panel (AID 1159580)
particulars: S. cerevisiae deletion strains, growth OD, locus YEL061C, strain CIN8, stronger effect = lower value
Out of some 5,500 compounds screened, about 2,000 (36%) were called active. Roughly 18% stayed inconclusive and do not appear here. The list shows a part of the results.
In this section, each of the compounds is paired with its reported normalized growth.
Lab note: jot down the number only; don't add units.

// below: answered compounds
CN(C)c1ccc(C(=C2C=CC(=[N+](C)C)C=C2)c2ccc(N(C)C)cc2)cc1 = 0.347
Cc1cc(O)c(C=O)c(O)c1C(=O)O = 1.01
CCN(CC)CCNC(=O)c1cc(Br)c(N)cc1OC = 0.978
S=c1nc[nH]c2nc[nH]c12 = 0.991
CN(C)C(=S)SSC(=S)N(C)C = 0.0482

Problem: Consider the compound shown here: CCOC(=O)c1c(C)cc(O)c(C)c1O What is its recorded normalized growth?
Result: 0.975

Problem: Consider the compound shown here: CC(=O)OCC[N+](C)(C)C What is its recorded normalized growth?
Result: 0.993

Problem: Consider the compound shown here: CC(N)C(=O)OC(C)(C)Cc1ccc(Cl)cc1 (configuration not stated) What is its recorded normalized growth?
Result: 0.977

Problem: Consider the compound shown here: CC(C)(O)[C@@H]1[C@H]2OC(=O)[C@@H]1[C@]1(O)C[C@H]3O[C@]34C(=O)O[C@H]2[C@]14C What is its recorded normalized growth?
Result: 1

Problem: Consider the compound shown here: Ic1ccc(I)s1 What is its recorded normalized growth?
Result: 1.04

Problem: Consider the compound shown here: COc1cc2c(cc1OC)CC(=O)OC2 What is its recorded normalized growth?
Result: 1

Problem: Consider the compound shown here: COc1cc2c(cc1OC)C1C(=O)c3ccc4c(c3OC1CO2)CCC(C)(C)O4 (configuration not stated) What is its recorded normalized growth?
Result: 1

----------
method_summary: chemical genetic growth profiling, strain panel (AID 1159580)
particulars: S. cerevisiae deletion strains, growth OD, locus YOL012C, strain htz1
About 2,000 (36%) of roughly 5,500 compounds were called active. Inconclusive results (about 18%) are left out. The list shows a part of the results.
In this section, each of the molecules is paired with its reported normalized growth.
Lab note: jot down the number only; don't add units.

CC(C)(OC(=O)c1ccccc1)[C@@H]1Cc2cc3ccc(=O)oc3cc2O1 = 1.01
COc1cc2c(cc1OC)C1C(=O)c3ccc4c(c3OC1CO2)CCC(C)(C)O4 (stereo not given) = 1.01
Cc1c(O)c(C(=O)CC(C)C)c2oc3c(C(=O)CC(C)C)c(O)c(C)c(O)c3c2c1O = 0.768
Cc1cccc(C)c1OCC(C)N (stereo not given) = 1.19
OCCN1C[C@@H](O)[C@@H](O)C(O)C1CO (stereo not given in full) = 1.11
COC1=C(OC)C(=O)C(C/C=C(\C)CC/C=C(\C)CC/C=C(\C)CC/C=C(/C)CC/C=C(\C)CC/C=C(\C)CC/C=C(\C)CC/C=C(\C)CC/C=C(\C)CCC=C(C)C)=C(C)C1=O = 0.872
O=C(O)c1cc2ccccc2[nH]1 = 1.07
CC(=O)NC1SCCC1=O (stereo not given) = 1.01

Problem: Consider the molecule shown here: COc1cc2c(cc1OC)[C@@H]1C(=O)c3ccc(O)c(CC=C(C)C)c3O[C@@H]1CO2 What is its recorded normalized growth?
Result: 0.715

Problem: Consider the molecule shown here: C=C(C)C1CNC(C(=O)O)C1CC(=O)O (stereo not given) What is its recorded normalized growth?
Result: 0.909

----------
In this section, each of the compounds is paired with its reported normalized growth.
method_summary: chemical genetic growth profiling, strain panel (AID 1159580);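 note: tested at 20 µM; growth read once vehicle control cultures reached saturation at 30 °C; 1 = growth at the plate median or of vehicle wells; lower values mean less growth of the strain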
particulars: S. cerevisiae deletion strains, growth OD, locus YLR262C, strain YPT6 (second series), stronger effect = lower value
Hit rate of the full screen: of about 5,500 compounds, about 2,000 (36%) were called active. Roughly 18% stayed inconclusive and do not appear here. Some of the results follow.
Lab note: jot down the number only; don't add units.

// below: answered compounds
C=C(C)C1CNC(C(=O)O)C1CC(=O)O (stereo not drawn) = 0.991
CC1=C(C/C=C(\C)CCC[C@H](C)CCC[C@H](C)CCCC(C)C)C(=O)c2ccccc2C1=O = 0.899

Shifting focus to the compound that follows.
Problem: Consider the compound shown here: CCOC(=O)C(C)(C)Oc1ccc(Cl)cc1 What is its recorded normalized growth?
Result: 0.965

----------
In this section, each of the compounds is paired with its reported normalized growth.
method_summary: chemical genetic growth profiling, strain panel (AID 1159580);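 note: tested at 20 µM; growth read once vehicle control cultures reached saturation at 30 °C; 1 = growth at the plate median or of vehicle wells; lower values mean less growth of the strain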
particulars: S. cerevisiae deletion strains, growth OD, locus YBR021W, strain FUR4, stronger effect = lower value
Out of some 5,500 compounds screened, about 2,000 (36%) were called active. Not shown: some 18% with an inconclusive outcome. The list shows a part of the results.
Lab note: jot down the number only; don't add units.

CCN(CC)CCNC(=O)c1cc(Br)c(N)cc1OC = 1.03

Problem: Consider the compound shown here: NCCSSCCN What is its recorded normalized growth?
Result: 1.01

Problem: Consider the compound shown here: COCCc1ccc(OCC(O)CNC(C)C)cc1 (configuration not stated) What is its recorded normalized growth?
Result: 1.01

Problem: Consider the compound shown here: COc1ccc2c3c1O[C@H]1C[C@@H](O)C=C[C@@]31CCN(C)C2 What is its recorded normalized growth?
Result: 0.999

Problem: Consider the compound shown here: COP(=O)(OC)OC=C(Cl)Cl What is its recorded normalized growth?
Result: 1.05

Problem: Consider the compound shown here: CC(=O)OC(C)(C)[C@@H]1Cc2cc3ccc(=O)oc3cc2O1 What is its recorded normalized growth?
Result: 0.99

----------
method_summary: chemical genetic growth profiling, strain panel (AID 1159580);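 note: tested at 20 µM; growth read once vehicle control cultures reached saturation at 30 °C; 1 = growth at the plate median or of vehicle wells; lower values mean less growth of the strain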
particulars: S. cerevisiae deletion strains, growth OD, locus YPL055C, strain LGE1, stronger effect = lower value
About 2,000 (36%) of roughly 5,500 compounds were called active. Another 18% or so got no clear call; they are omitted. This is one part of the list.
measurement_type: normalized growth
Lab note: jot down the number only; don't add units.

// below: answered compounds
CN(N=O)c1ccc(O)c(O)c1 = 0.993
Cc1ccc(C)c(NC(=S)N(CCc2ccccc2)CCc2ccccn2)c1 = 0.946
C=CCN1C[C@@H](C)N([C@H](c2ccc(C(=O)N(CC)CC)cc2)c2cccc(OC)c2)C[C@@H]1C = 1.01
O=C1O/C(=C/Br)CCC1c1cccc2ccccc12 (stereo not given) = 0.922
COc1cc(C(F)(F)F)cc(C(F)(F)F)c1C(=O)Nc1cc(C(F)(F)F)cc(C(F)(F)F)c1 = 1.07

Problem: Consider the compound shown here: CC(C)(C)c1onc(OCP(=O)(O)O)c1CC(N)C(=O)O (stereo not given) What is its recorded normalized growth?
Result: 1

Problem: Consider the compound shown here: COc1ccc(NC(=O)c2cc(C(F)(F)F)cc(C(F)(F)F)c2)cn1 What is its recorded normalized growth?
Result: 0.963

Problem: Consider the compound shown here: CCOC(=O)C(=CNc1cccc(C#N)c1)C(=O)OCC What is its recorded normalized growth?
Result: 0.934

Problem: Consider the compound shown here: NCCSSCCN What is its recorded normalized growth?
Result: 0.994

Problem: Consider the compound shown here: COc1ccc2c3c1O[C@H]1C[C@@H](O)C=C[C@@]31CCN(C)C2 What is its recorded normalized growth?
Result: 0.935
